experiment: ATG_NRF2_ARE_CIS: Attagene CIS-FACTORIAL HepG2 Assay for human Nuclear Factor Erythroid 2 Related Factor 2 (NFR2) response to Antioxidant Response Elements (ARE) (AID 2282992); settings: HepG2 Attagene ARE/NRF2 reporter, transcription factor activity; actives raise or lower the signal
Active and inactive are the calls of the source. Rule for the calls: active = hit-call score of the fitted dose curve at least 0.9, where 1 is the maximum; inactive = score below 0.9.
Parameter call: string, one of active, inactive

Reference set, count: 5
| COMPOUND | QUALITATIVE LABEL |
| --- | --- |
| CCCCOC(=O)[C@@H](C)Oc1ccc(Oc2ccc(C(F)(F)F)cn2)cc1 | inactive |
| CCCOC(=O)c1ccc(C(=O)OCCC)nc1 | inactive |
| C#CCOC(=O)[C@@H](C)Oc1ccc(Oc2ncc(Cl)cc2F)cc1 | inactive |
| COC(=O)c1cccc(C)c1S(=O)(=O)NC(=O)Nc1nc(OCC(F)(F)F)nc(N(C)C)n1 | active |
| CCC(O)=C1C(=O)CC(C(=O)O)CC1=O (stereo unspecified) | active |

-- ask Please let me know the test result on file for `CCCCOCCOCCOCc1cc2c(cc1CCC)OCO2` .
-- reply active
